# assayed system: RIPK1 (recombinant GST-RIPK1 kinase domain, residues 1-327) (Homo sapiens (Human), UniProt Q13546)
# Sequence (Q13546 1-327): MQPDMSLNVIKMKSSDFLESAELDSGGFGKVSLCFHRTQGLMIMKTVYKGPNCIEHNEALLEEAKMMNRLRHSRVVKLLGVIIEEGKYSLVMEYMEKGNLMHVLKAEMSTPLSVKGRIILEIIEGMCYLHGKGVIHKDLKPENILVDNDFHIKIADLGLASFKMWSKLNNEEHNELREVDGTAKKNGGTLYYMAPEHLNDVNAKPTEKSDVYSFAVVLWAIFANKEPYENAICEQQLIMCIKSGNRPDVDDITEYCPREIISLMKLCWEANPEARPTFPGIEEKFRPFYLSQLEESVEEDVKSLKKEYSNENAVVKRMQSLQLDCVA
# experimental protocol: RIPK1-ADP-Glo Enzymatic Assay
# assay context: 25 nM GST-RIPK1, 300 μM ATP, 3 μM dephosphorylated-MBP; 30 minutes pre-incubation, 150 minutes reaction; ten-point titration
pIC50: −log10 of the molar value.
Record y whenever pIC50 is at 7 or higher; record n when lower.

{"compound": "COC(=O)C12CCC(C(=O)N3C[C@@H]4C[C@H]3c3ccccc3O4)(CC1)C2", "class label": "y"}
{"compound": "CC1(C(=O)N2C[C@@H]3C[C@H]2c2cc(F)ccc2O3)CC(C#N)C1 (some centres unmarked)", "class label": "y"}
{"compound": "CC1(C)C(C(=O)N2C[C@@H]3C[C@H]2c2ccccc2O3)C1(C)C", "class label": "n"}
{"compound": "CC(C)(C(=O)N1C[C@@H]2C[C@H]1c1ccccc1O2)C1CC1", "class label": "y"}
{"compound": "CC1(C(=O)N2C[C@@H]3C[C@H]2c2cccc(F)c2O3)CCC1", "class label": "y"}
{"compound": "CC1(C)CCC1C(=O)N1C[C@@H]2C[C@H]1c1ccccc1O2 (mixture of isomers)", "class label": "n"}
{"compound": "N#Cc1cc(F)cc2c1O[C@H]1C[C@@H]2N(C(=O)C23CCC(F)(CC2)C3)C1", "class label": "y"}
{"compound": "CC1(C(=O)N2C[C@@H]3C[C@H]2c2ccccc2O3)CCOC1 (mixture of isomers)", "class label": "n"}
{"compound": "O=C(N1C[C@@H]2C[C@H]1c1ccccc1O2)C1(C(F)F)CCC1", "class label": "y"}
{"compound": "CC(C)(C)C(=O)N1C[C@@H]2C[C@H]1c1ccccc1O2", "class label": "y"}
{"compound": "O=C(N1C[C@@H]2C[C@H]1c1ccccc1O2)C12CCC(C(F)F)(CC1)CC2", "class label": "n"}
{"compound": "CC(F)(F)C(C)(C)C(=O)N1C[C@@H]2C[C@H]1c1ccc(Cl)cc1O2", "class label": "y"}
{"compound": "N#CCC1(C(=O)N2C[C@@H]3C[C@H]2c2cccc(F)c2O3)CCC1", "class label": "n"}
